- tested-target: full length rTrkA and mNGF (Rattus norvegicus)
- Construct: co-expressing full length rTrkA and mNGF; expressed in transfected cells; host or cells: Ba/F3 cells
- Sequence (P35739 33-799): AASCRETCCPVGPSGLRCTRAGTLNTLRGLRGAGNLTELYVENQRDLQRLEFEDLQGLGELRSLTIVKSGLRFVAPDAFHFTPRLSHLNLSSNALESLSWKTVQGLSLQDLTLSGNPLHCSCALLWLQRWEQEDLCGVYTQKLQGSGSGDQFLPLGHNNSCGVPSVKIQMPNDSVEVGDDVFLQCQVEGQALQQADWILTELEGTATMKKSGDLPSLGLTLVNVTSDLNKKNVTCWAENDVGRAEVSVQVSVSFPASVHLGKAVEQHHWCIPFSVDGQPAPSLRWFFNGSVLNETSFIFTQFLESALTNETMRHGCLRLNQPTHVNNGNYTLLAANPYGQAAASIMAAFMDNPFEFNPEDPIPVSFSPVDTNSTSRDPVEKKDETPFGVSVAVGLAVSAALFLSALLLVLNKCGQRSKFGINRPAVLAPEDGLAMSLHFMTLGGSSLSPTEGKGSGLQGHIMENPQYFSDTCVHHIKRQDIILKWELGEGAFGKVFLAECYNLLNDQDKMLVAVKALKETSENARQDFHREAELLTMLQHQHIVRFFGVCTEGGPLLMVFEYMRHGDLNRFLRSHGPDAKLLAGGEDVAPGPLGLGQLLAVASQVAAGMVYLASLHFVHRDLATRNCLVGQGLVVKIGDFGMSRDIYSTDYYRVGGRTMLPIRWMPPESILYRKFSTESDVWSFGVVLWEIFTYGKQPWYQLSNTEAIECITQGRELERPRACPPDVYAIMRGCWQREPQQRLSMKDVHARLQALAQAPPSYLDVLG
- Sequence (P01139 122-241 partner): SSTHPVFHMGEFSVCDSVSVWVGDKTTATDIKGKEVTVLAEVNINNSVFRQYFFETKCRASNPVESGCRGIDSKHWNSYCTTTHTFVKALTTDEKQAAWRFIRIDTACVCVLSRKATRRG
- experimental-protocol: Inhibition of proliferation of Ba/F3 cells co-expressing full length rTrkA and mNGF (BaF3/TrkA-NFG)
- Format: cell-based
- protocol-conditions: BaF3 TRKA-NGF cells, CTG readout
Friendly reminder: BaF3 TRKA-NGF CTG IC 50 below 20 nM is True, at or above is False.

{"compound": "OCCN1CCN(c2cccc(-c3cnc4ccc(N5CCCC5c5cccc(F)c5)nn34)n2)CC1 (stereo not shown)", "class-name": "True"}
{"compound": "OCCC1CCN(c2cccc(-c3cnc4ccc(N5CCOCC5c5cccc(F)c5)nn34)n2)CC1 (stereo not shown)", "class-name": "True"}
{"compound": "Fc1cccc(C2COCCN2c2ccc3ncc(-c4cccc(N5CC6CC5CN6)n4)n3n2)c1 (stereo not shown)", "class-name": "False"}

Request: Strictly below 20 nM in BaF3 TRKA-NGF CTG IC 50? N#Cc1ccc(-c2cnc3ccc(N4CCCC4c4cc(F)ccc4F)nn23)cc1OCCN1CCOCC1 (stereo not shown)
Response: False

Request: Given `O=C(COCc1ccccc1)N1CCN(c2cccc(-c3cnc4ccc(N5CCC[C@@H]5c5cccc(F)c5)nn34)n2)CC1` , is recorded BaF3 TRKA-NGF CTG IC 50 strictly lower than 20 nM?
Response: True

Request: Please determine if CC(C)(C)OC(=O)N1CCN(c2cccc(-c3cnc4ccc(N5CCOCC5c5cccc(F)c5)nn34)n2)CC1 (stereo not shown) is below 20 nM in terms of BaF3 TRKA-NGF CTG IC 50.
Response: False

###

Measured log10 of IC50 values are reported for all entries that follow.
- tested-target: Tel-TrkC (Homo sapiens, UniProt Q16288)
- Construct: The cells also express luciferase as the viability read-out; it is not fused to the kinase; P41212 (Transcription factor ETV6)
- Sequence (Q16288 whole entry, the tested form may be a part): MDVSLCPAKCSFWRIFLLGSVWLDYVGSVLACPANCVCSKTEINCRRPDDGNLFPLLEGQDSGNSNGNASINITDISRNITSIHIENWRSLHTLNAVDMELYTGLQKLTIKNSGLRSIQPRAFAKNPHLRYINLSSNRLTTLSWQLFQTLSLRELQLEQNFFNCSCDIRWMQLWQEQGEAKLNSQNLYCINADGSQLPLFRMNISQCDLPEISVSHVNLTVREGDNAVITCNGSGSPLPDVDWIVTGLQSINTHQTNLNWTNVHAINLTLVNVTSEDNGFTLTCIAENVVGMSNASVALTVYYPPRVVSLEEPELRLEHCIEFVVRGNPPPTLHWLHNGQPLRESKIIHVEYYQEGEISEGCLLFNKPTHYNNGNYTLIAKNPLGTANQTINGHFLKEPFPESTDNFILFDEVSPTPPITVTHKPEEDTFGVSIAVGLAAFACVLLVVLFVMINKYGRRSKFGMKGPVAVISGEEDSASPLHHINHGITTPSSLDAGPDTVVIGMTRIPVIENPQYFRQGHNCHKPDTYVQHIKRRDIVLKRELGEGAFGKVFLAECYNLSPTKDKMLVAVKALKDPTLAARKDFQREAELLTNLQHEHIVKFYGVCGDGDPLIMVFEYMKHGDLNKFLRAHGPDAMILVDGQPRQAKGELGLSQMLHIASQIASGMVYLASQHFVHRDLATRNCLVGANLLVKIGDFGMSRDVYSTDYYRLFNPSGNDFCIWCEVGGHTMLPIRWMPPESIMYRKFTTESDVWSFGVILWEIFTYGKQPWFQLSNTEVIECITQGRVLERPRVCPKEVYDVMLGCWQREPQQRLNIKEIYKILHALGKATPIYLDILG
- experimental-protocol: Inhibition of proliferation of Ba/F3 cells expressing Tel-TrkC (BaF3/Tel-TrkC)
- protocol-conditions: read-out: Ba/F3 Tel-TrkC IC 50
Could you please treat all values as log10 of IC50 in µM?

Answered cases to consult:
{"compound": "Fc1cccc(C2CCCN2c2ccc3ncc(-c4csc(N5CCCCC5)n4)n3n2)c1 (centres unmarked) [Table 3-Compound 6]", "experimental-result": -0.74}
{"compound": "Cc1ccc(C)c(C2CCCN2c2ccc3ncc(-c4cccc(C(=O)O)n4)n3n2)c1 (centres unmarked) [Table 3-Compound 1]", "experimental-result": -0.62}
{"compound": "N#Cc1cccc(-c2cnc3ccc(N4CCCC4c4ccccc4)nn23)c1 (centres unmarked) [Table 3-Compound 54]", "experimental-result": -1.77}
{"compound": "Fc1cccc([C@H]2CCCN2c2ccc3ncc(-c4cccc(N5CCN(c6cccnc6)CC5)n4)n3n2)c1 [Table 7-Compound 255]", "experimental-result": -2.52}

Request: Specify measured log10 of IC50 for N#Cc1cccc(-n2cnc3ccc(N4CCCC4c4cccc(F)c4)nc32)c1 (centres unmarked) [Table 1-Compound 1] .
Response: -1.16

Request: For Fc1cccc(C2CCCCN2c2ccc3ncc(-c4ccc(N5CCOCC5)nc4)n3n2)c1 (centres unmarked) [Table 3-Compound 58] , write its log10 of IC50.
Response: -1.85

Request: Report log10 of IC50, nothing else, for this compound: CN(C)CCN(C)c1cc(-c2cnc3ccc(N4CCCC4c4cc(F)ccc4F)nn23)ccc1C#N (centres unmarked) [Table 5-Compound 23]
Response: -1.80

###

- tested-target: Tel-TrkB (Homo sapiens)
- Construct: dimerization domain of Tel (ETV6) transcription factor (fusion partner, human ETV6 P41212); expressed in transfected cells; host or cells: luciferase expressing Ba/F3 murine hematopoietic progenitor cells; the other entry of the earlier key: ETV6 (P41212, Transcription factor ETV6)
- experimental-protocol: Inhibition of proliferation of Ba/F3 cells expressing Tel-TrkB (BaF3/Tel-TrkB)
- Assay type: cell-based
- protocol-conditions: Ba/F3 Tel-TrkB cells; read-out: Ba/F3 Tel-TrkB IC 50
Parameter pIC50: see the listing below.
pIC50 is defined as minus the log10 of a concentration measured in mol/L.

Consider the following illustrative entries.
{"molecule": "Fc1cccc(C2CCCN2c2ccc3ncc(-c4cccc(-c5ccnc(N6CC7(COC7)C6)n5)n4)n3n2)c1 (stereo not shown)", "tested-target": "Tel-TrkB (Homo sapiens)", "pIC50": 7.62}
{"molecule": "CCN(CC)CCNc1cccc(-c2cnc3ccc(N4CCCC4c4cccc(F)c4)nn23)n1 (stereo not shown)", "tested-target": "Tel-TrkB (Homo sapiens)", "pIC50": 7.83}
{"molecule": "OCc1cccc(-c2cnc3ccc(N4CCCC4c4cccc(F)c4)nn23)n1 (stereo not shown)", "tested-target": "Tel-TrkB (Homo sapiens)", "pIC50": 7.89}

Please find the next molecule below.
Request: Please indicate pIC50 recorded for `CCN(CC)S(=O)(=O)N1CCN(c2cccc(-c3cnc4ccc(N5CCC[C@@H]5c5cccc(F)c5)nn34)n2)CC1`
Response: 7.55

###

- tested-target: full length rTrkA and mNGF (Rattus norvegicus)
- Construct: co-expressing full length rTrkA and mNGF; expressed in transfected cells; host or cells: Ba/F3 cells
- experimental-protocol: Inhibition of proliferation of Ba/F3 cells co-expressing full length rTrkA and mNGF (BaF3/TrkA-NFG)
- Format: cell-based
- protocol-conditions: BaF3 TRKA-NGF cells, CTG readout
readout-type: BaF3 TRKA-NGF CTG IC 50
Note to self: number, then unit, no commentary.

Examples with answers:
{"compound": "CC1CN(Cc2cccc(-c3cnc4ccc(N5CCCC5c5cccc(F)c5)nn34)n2)CC(C)O1 (centres unmarked)", "tested-target": "full length rTrkA and mNGF (Rattus norvegicus)", "BaF3 TRKA-NGF CTG IC 50": "1200 nM"}
{"compound": "O=C(C1CCN(c2cccc(-c3cnc4ccc(N5CCOCC5c5cccc(F)c5)nn34)n2)CC1)N1CCC(O)C1 (centres unmarked)", "tested-target": "full length rTrkA and mNGF (Rattus norvegicus)", "BaF3 TRKA-NGF CTG IC 50": "12 nM"}
{"compound": "CNC1CCN(c2cc(-c3cccc(-c4cnc5ccc(N6CCCC6c6cccc(F)c6)nn45)n3)ccn2)CC1 (centres unmarked)", "tested-target": "full length rTrkA and mNGF (Rattus norvegicus)", "BaF3 TRKA-NGF CTG IC 50": "130 nM"}
{"compound": "OCCN1CCN(c2nccc(-c3cccc(-c4cnc5ccc(N6CCC[C@@H]6c6cccc(F)c6)nn45)n3)n2)CC1", "tested-target": "full length rTrkA and mNGF (Rattus norvegicus)", "BaF3 TRKA-NGF CTG IC 50": "5.12 nM"}
{"compound": "[2H]C([2H])([2H])N(C1CCN(c2cccc(-c3cnc4ccc(N5CCC[C@@H]5c5cccc(F)c5)nn34)n2)CC1)C([2H])([2H])[2H]", "tested-target": "full length rTrkA and mNGF (Rattus norvegicus)", "BaF3 TRKA-NGF CTG IC 50": "29 nM"}
{"compound": "Fc1cccc(C2CCCN2c2ccc3ncc(-c4cccc(OCCN5CCOCC5)n4)n3n2)c1 (centres unmarked)", "tested-target": "full length rTrkA and mNGF (Rattus norvegicus)", "BaF3 TRKA-NGF CTG IC 50": "28 nM"}

Request: Provide BaF3 TRKA-NGF CTG IC 50 value for the following compound: O=C(NCCO)C1CCN(c2cccc(-c3cnc4ccc(N5CCOCC5c5cccc(F)c5)nn34)n2)CC1 (centres unmarked)
Response: 8.1 nM

Request: Name the recorded BaF3 TRKA-NGF CTG IC 50 of the compound listed here: Fc1cccc(C2CCCN2c2ccc3ncc(-c4csc(CN5CCNCC5)n4)n3n2)c1 (centres unmarked)
Response: 1340 nM

###

- tested-target: Tel-TrkB (Homo sapiens, UniProt Q16620)
- Construct: dimerization domain of Tel (ETV6) transcription factor (fusion partner, human ETV6 P41212); expressed in transfected cells; host or cells: luciferase expressing Ba/F3 murine hematopoietic progenitor cells; the other entry of the earlier key: ETV6 (P41212, Transcription factor ETV6)
- Sequence (Q16620 538-822 limits assumed): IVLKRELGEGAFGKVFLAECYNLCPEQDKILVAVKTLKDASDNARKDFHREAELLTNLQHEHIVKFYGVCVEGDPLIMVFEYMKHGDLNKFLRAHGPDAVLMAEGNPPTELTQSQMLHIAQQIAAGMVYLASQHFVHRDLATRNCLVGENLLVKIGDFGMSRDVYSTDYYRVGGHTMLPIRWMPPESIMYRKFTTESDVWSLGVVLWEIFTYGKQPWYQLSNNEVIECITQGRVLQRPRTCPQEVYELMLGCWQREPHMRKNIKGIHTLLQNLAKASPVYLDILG
- experimental-protocol: Inhibition of proliferation of Ba/F3 cells expressing Tel-TrkB (BaF3/Tel-TrkB)
- Type: cell-based
- protocol-conditions: Ba/F3 Tel-TrkB cells; read-out: Ba/F3 Tel-TrkB IC 50
readout-type: pIC50
pIC50 field: float, defined as -log10 of concentration (mol/L).

{"molecule": "CC(F)C(=O)N(C)C1CCN(c2cccc(-c3cnc4ccc(N5CCCC5c5cccc(F)c5)nn34)n2)C1 (stereo not shown)", "pIC50": 7.82}
{"molecule": "CN1CCN(c2cnc(-c3cnc4ccc(N5CCCC5c5cccc(F)c5)nn34)cn2)CC1 (stereo not shown)", "pIC50": 7.28}

Request: Determine reported pIC50 for Fc1cccc(C2CCCN2c2ccc3ncc(-c4cccc(-c5cnco5)n4)n3n2)c1 (stereo not shown) ; test system: Tel-TrkB (Homo sapiens, UniProt Q16620).
Response: 8.80

Request: For Tel-TrkB (Homo sapiens, UniProt Q16620), give pIC50 of the listed molecule: OC1CCN(c2ccc(-c3cccc(-c4cnc5ccc(N6CCCC6c6cccc(F)c6)nn45)n3)cn2)CC1 (stereo not shown)
Response: 8.10

The reported measurements were obtained from patent US8507488B2.
